- target: Hck (UniProt P08631)
- Sequence (P08631 whole entry, looked up): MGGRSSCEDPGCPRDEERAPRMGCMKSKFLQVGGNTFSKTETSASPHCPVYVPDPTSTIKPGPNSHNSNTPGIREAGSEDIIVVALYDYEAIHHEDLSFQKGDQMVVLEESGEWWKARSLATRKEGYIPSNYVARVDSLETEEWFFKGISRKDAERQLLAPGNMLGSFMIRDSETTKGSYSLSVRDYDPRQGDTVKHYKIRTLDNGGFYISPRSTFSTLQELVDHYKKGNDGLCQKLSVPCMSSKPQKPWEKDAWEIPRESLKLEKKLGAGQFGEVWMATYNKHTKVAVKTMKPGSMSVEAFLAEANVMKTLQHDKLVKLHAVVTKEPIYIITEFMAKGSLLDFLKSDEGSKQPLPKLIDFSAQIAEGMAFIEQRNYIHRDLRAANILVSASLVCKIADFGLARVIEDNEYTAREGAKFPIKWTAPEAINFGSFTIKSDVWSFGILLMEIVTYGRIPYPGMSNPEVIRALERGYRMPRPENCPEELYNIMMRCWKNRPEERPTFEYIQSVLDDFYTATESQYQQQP
- assayExplanation: phosphorylation enrichment, bacterial display (enrichment ratio); higher = better substrate or ligand; peptides without Tyr show the background;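 also: 11-residue human phosphosite peptides and single-mutation variants displayed on the E. coli surface, counted by deep sequencing, each peptide's frequency after selection divided by its frequency in the unselected input library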;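 also: frequency after pTyr selection over input frequency; kinase dosed for 20-30% of maximal phosphorylation in three min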
experimentalReadout: phosphorylation enrichment
Write the number on its own, no unit after it.

Known results for sequences:
IHETTYNSIMK [ACTA1_Y281] :: 1.38
AKRKNYAPVAM [CFAP47_Y557] :: 0.392
KLQKKYGPISS [CYP17A1_Y60_Y64S] :: 0.375
KPPPSYESEEE [BRD4_Y599_T598S] :: 0.601
SLNAVYPKAGS [OAS3_Y376_R378K] :: 0.422

Ask | Quick check: phosphorylation enrichment of KKHIPYRQHKS [CSNK1G2_Y206_E208Q] ?
Reply | 1.56

Ask | Quick check: phosphorylation enrichment of FGLQAYTKVKT [ALDH2_Y502_E504K_YF] ?
Reply | 0.513

Ask | Quick check: phosphorylation enrichment of REVPVYISEDS [SYNM_Y460_G462S] ?
Reply | 1.09

Ask | Quick check: phosphorylation enrichment of FSGDFYRIQGR [DDR2_Y741_YF] ?
Reply | 0.449

Ask | Quick check: phosphorylation enrichment of DISEPYEVFRI [IRF8_Y107_K108E_YF] ?
Reply | 1.81

Ask | Quick check: phosphorylation enrichment of KNITEYCRHLI [RECQL_Y492_D495H] ?
Reply | 0.455

Ask | Quick check: phosphorylation enrichment of GCKKRYDKDKP [THAP1_Y14_N12K] ?
Reply | 0.452

Ask | Quick check: phosphorylation enrichment of TPLSAYQIPRT [GAB2_Y324] ?
Reply | 0.29
